# Tested on: B-16 melanoma cells
# method summary: Test for evaluating melanogenesis-inhibitory function (cell-whitening degree) in cell culture systems using B-16 melanoma cells
# Type: cell-based
# Set-up: key: ++: The whitening degree is higher than that observed when adding 450 μg/mL of vitamin C-magnesium phosphate.; +: The whitening degree is almost identical to that observed when adding 450 μ g/mL of vitamin C-magnesium phosphate.; ±: The whitening degree is not higher than that observed when adding 450 μg/mL of vitamin C-magnesium phosphate, but higher than that of the control.; −: The whitening degree is almost identical to that observed for the control
# condition set: concentration 8 ppm; B-16 melanoma cells
quantity name: Whitening degree

Data request: Could you tell me which Whitening degree is on file for CC1(C)CC[C@]2(C(=O)O)CC[C@]3(C)C(=CC[C@@H]4[C@@]5(C)C[C@@H](O)[C@H](O)C(C)(C)[C@@H]5CC[C@]43C)[C@@H]2C1 [Purified maslinic acid 1, maslinic acid] ?
Data returned: ++

Data request: Reported Whitening degree, compound CCOC(=O)[C@]12CCC(C)(C)C[C@H]1C1=CC[C@@H]3[C@@]4(C)C[C@@H](O)[C@H](O)C(C)(C)[C@@H]4CC[C@@]3(C)[C@]1(C)CC2 [Compound of Synthesis 1, Ethyl Ester of Maslinic Acid] : ____
Data returned: ++

Data request: What does the record list as Whitening degree for `C=C(C)[C@@H]1CC[C@]2(C(=O)O)CC[C@]3(C)[C@H](CC[C@@H]4[C@@]5(C)CC[C@H](O)C(C)(C)[C@@H]5CC[C@]43C)[C@@H]12` ?
Data returned: ±

Data request: Fill in the blank: the reported Whitening degree of CC[Si](CC)(CC)OC(=O)[C@]12CCC(C)(C)C[C@H]1C1=CC[C@@H]3[C@@]4(C)C[C@@H](O[Si](CC)(CC)CC)[C@H](O[Si](CC)(CC)CC)C(C)(C)[C@@H]4CC[C@@]3(C)[C@]1(C)CC2 [Compound of Synthesis 3] is ____.
Data returned: +

* * *

Some molecules, each annotated with its measured Cell-Survival Rate.
# System: B-16 melanoma cells
# method summary: Cell-survival rate (cytotoxicity) in B-16 melanoma cell culture
# Type: cell-based
# condition set: concentration 10 ppm; B-16 melanoma cells
Numbers only; they are read as %.

Consider the following illustrative entries.
Data request: Which value of Cell-Survival Rate has been reported for `C=C(C)[C@@H]1CC[C@]2(CO)CC[C@]3(C)[C@H](CC[C@@H]4[C@@]5(C)CC[C@H](O)C(C)(C)[C@@H]5CC[C@]43C)[C@@H]12` in the records?
Data returned: 100

Data request: Entry under review: CC[Si](CC)(CC)OC(=O)[C@]12CCC(C)(C)C[C@H]1C1=CC[C@@H]3[C@@]4(C)C[C@@H](O[Si](CC)(CC)CC)[C@H](O[Si](CC)(CC)CC)C(C)(C)[C@@H]4CC[C@@]3(C)[C@]1(C)CC2 [Compound of Synthesis 3] . Reported Cell-Survival Rate?
Data returned: 100

Data request: Give the measured Cell-Survival Rate of CC1(C)CC[C@]2(C(=O)O)CC[C@]3(C)C(=CC[C@@H]4[C@@]5(C)C[C@@H](O)[C@H](O)C(C)(C)[C@@H]5CC[C@]43C)[C@@H]2C1 [Purified maslinic acid 2, maslinic acid] .
Data returned: 69

***
Data request: What Cell-Survival Rate value was documented for this molecule, CC1(C)CC[C@]2(C(=O)O)CC[C@]3(C)C(=CC[C@@H]4[C@@]5(C)C[C@@H](O)[C@H](O)C(C)(C)[C@@H]5CC[C@]43C)[C@@H]2C1 [Purified maslinic acid 1, maslinic acid] ?
Data returned: 57
